Please go through the items and note down their EC50.
tested.target: T1, human Nectin-4 extracellular antigen hNectin-4-His (human, UniProt Q96NY8 32-349)
T1 construct: C-terminal 8xHis tag included
T1 sequence: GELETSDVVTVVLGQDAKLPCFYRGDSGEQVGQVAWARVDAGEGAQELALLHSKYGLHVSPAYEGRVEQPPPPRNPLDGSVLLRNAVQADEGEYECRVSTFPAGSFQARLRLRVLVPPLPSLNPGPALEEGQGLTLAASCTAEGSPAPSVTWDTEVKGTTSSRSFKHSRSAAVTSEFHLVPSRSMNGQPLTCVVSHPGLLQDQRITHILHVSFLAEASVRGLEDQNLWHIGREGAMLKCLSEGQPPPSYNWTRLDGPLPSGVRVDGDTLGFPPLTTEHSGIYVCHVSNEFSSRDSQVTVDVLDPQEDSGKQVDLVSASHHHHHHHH
assay.remarks: ELISA, coated hNectin-4-His
Show the value, then the unit it is measured in.

Please review the entries below; each comes with its answer.
# binder, parameter, obs.value
rows = [
    ("antibody 1G8-2B3 (antibody, human IgG1, kappa, V domains shown) VH: EVQLVESGGGLVQPGGSLRLSCAASGYNFTTSAMSWVRQAPGKGLEWVSRIYQDSSTTDYADSVKGRFTISRDNSKNTLYLQMNSLRAEDTAVYYCARQTEDRSYGYDLDYWGQGTLVTVSS VL: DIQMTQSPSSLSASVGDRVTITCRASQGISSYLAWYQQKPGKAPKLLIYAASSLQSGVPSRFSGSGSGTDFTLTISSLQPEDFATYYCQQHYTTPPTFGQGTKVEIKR", "EC50", "5 ng/mL"),
    ("antibody 1G8-2H8 (antibody, human IgG1, kappa, V domains shown) VH: EVQLVESGGGLVQPGGSLRLSCAASGDIFGSYAMSWVRQAPGKGLEWVSAISGSGGSTYYADSVKGRFTISRDNSKNTLYLQMNSLRAEDTAVYYCARQTEDRSYGYDLDYWGQGTLVTVSS VL: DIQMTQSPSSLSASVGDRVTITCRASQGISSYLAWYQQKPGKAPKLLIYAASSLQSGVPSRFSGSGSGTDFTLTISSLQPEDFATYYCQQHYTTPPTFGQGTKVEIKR", "EC50", "5 ng/mL"),
]

// fetch EC50 given entry antibody 1F3-1A9 (antibody, human IgG1, kappa, V domains shown) VH: EVQLVESGGGLVQPGGSLRLSCAASGYSFDNYAMSWVRQAPGKGLEWVSRISPTGGYASYADSVKGRFTISRDNSKNTLYLQMNSLRAEDTAVYYCARAELLAFDVYTASDYWGQGTLVTVSS VL: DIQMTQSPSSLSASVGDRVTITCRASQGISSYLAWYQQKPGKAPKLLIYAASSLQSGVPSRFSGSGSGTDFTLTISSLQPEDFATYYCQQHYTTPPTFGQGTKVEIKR
7 ng/mL
